experiment_description: Half life in Sprague-Dawley rat at 10 mg/kg, po
Assay type: ADME, organism-based
experimental_conditions: in vivo
quantity_measured: half-life (h)
Your answer should be a plain number; it is taken to be in h.

Here are 3 molecules together with their reported answers.
# chemical_smiles, endpoint_unit, half-life
measured = [
    ("Cc1cc(C(F)(F)F)ccc1-c1cc2cnn([C@@H](CC(C)C)c3ccc(C(=O)NCCC(=O)O)cc3)c2cc1C", "h", 3.1),
    ("Cc1cc2c(cnn2[C@@H](CC(C)C)c2ccc(C(=O)NCCC(=O)O)cc2)cc1-c1ccc(C(F)(F)F)cc1Cl", "h", 7.1),
    ("Cc1c(-c2ccc(C(F)(F)F)cc2Cl)ccc2nn([C@@H](CC(C)C)c3ccc(C(=O)NCCC(=O)O)cc3)cc12", "h", 7.7),
]

Consider the record given below.
Q: If you can, please state the reported half-life value of `Cc1cc(C(F)(F)F)ccc1-c1cc2cn([C@@H](CC(C)C)c3ccc(C(=O)NCCC(=O)O)cc3)nc2cc1C` .
A: 4.3

====

experiment_description: Volume of distribution at steady state in dog at 2 mg/kg, iv or 10 mg/kg, po
Type: ADME, organism-based, Canis lupus familiaris
experimental_conditions: in vivo, read-out: Vdss
quantity_measured: Vd (L/kg)
Your answer should be a plain number; it is taken to be in L/kg.

Here are 2 molecules together with their reported answers.
# chemical_smiles, endpoint_unit, Vd
data = [
    ("Cc1cc(C(F)(F)F)ccc1-c1cc2cnn([C@@H](CC(C)C)c3ccc(C(=O)NCCC(=O)O)cc3)c2cc1C", "L/kg", 0.22),
    ("Cc1cc(C(F)(F)F)ccc1-c1cc2cn([C@@H](CC(C)C)c3ccc(C(=O)NCCC(=O)O)cc3)nc2cc1C", "L/kg", 0.26),
]

Q: If you can, please state the reported Vd value of `Cc1cc2c(cnn2[C@@H](CC(C)C)c2ccc(C(=O)NCCC(=O)O)cc2)cc1-c1ccc(C(F)(F)F)cc1Cl` .
A: 0.27

Q: Now give it for `Cc1c(-c2ccc(C(F)(F)F)cc2Cl)ccc2nn([C@@H](CC(C)C)c3ccc(C(=O)NCCC(=O)O)cc3)cc12` too.
A: 0.17

====

Recorded half-life for the following molecules
experiment_description: Half life in Sprague-Dawley rat at 2 mg/kg, iv
Format: ADME, organism-based
experimental_conditions: in vivo
Your answer should be a plain number; it is taken to be in h.

Here are 3 molecules together with their reported answers.
# chemical_smiles, endpoint_unit, half-life
records = [
    ("Cc1c(-c2ccc(C(F)(F)F)cc2Cl)ccc2nn([C@@H](CC(C)C)c3ccc(C(=O)NCCC(=O)O)cc3)cc12", "h", 1.9),
    ("Cc1cc(C(F)(F)F)ccc1-c1cc2cn([C@@H](CC(C)C)c3ccc(C(=O)NCCC(=O)O)cc3)nc2cc1C", "h", 3.7),
    ("Cc1cc(C(F)(F)F)ccc1-c1cc2cnn([C@@H](CC(C)C)c3ccc(C(=O)NCCC(=O)O)cc3)c2cc1C", "h", 1.6),
]

Consider the record given below.
Q: If you can, please state the reported half-life value of `Cc1cc2c(cnn2[C@@H](CC(C)C)c2ccc(C(=O)NCCC(=O)O)cc2)cc1-c1ccc(C(F)(F)F)cc1Cl` .
A: 3.6

====

experiment_description: Volume of distribution at steady state in C57 mouse at 5 mg/kg, iv or 20 mg/kg, po
Type: ADME, organism-based
experimental_conditions: in vivo, read-out: Vdss
Recorded Vd for the following compounds
Your answer should be a plain number; it is taken to be in L/kg.

Q: If you can, please state the reported Vd value of `Cc1c(-c2ccc(C(F)(F)F)cc2Cl)ccc2nn([C@@H](CC(C)C)c3ccc(C(=O)NCCC(=O)O)cc3)cc12` .
A: 2.24

Q: Now give it for `Cc1cc(C(F)(F)F)ccc1-c1cc2cnn([C@@H](CC(C)C)c3ccc(C(=O)NCCC(=O)O)cc3)c2cc1C` too.
A: 0.87

Q: Now give it for `Cc1cc(C(F)(F)F)ccc1-c1cc2cn([C@@H](CC(C)C)c3ccc(C(=O)NCCC(=O)O)cc3)nc2cc1C` too.
A: 1.56

Q: Now give it for `Cc1cc2c(cnn2[C@@H](CC(C)C)c2ccc(C(=O)NCCC(=O)O)cc2)cc1-c1ccc(C(F)(F)F)cc1Cl` too.
A: 1.45

====

Recorded bioavailability for the following compounds
experiment_description: Oral bioavailability in Sprague-Dawley rat at 10 mg/kg
Format: ADME, organism-based
experimental_conditions: in vivo
Your answer should be a plain number; it is taken to be in %.

Here are 2 compounds together with their reported answers.
# chemical_smiles, readout_number
rows = [
    ("Cc1cc2c(cnn2[C@@H](CC(C)C)c2ccc(C(=O)NCCC(=O)O)cc2)cc1-c1ccc(C(F)(F)F)cc1Cl", 35.4),
    ("Cc1cc(C(F)(F)F)ccc1-c1cc2cnn([C@@H](CC(C)C)c3ccc(C(=O)NCCC(=O)O)cc3)c2cc1C", 51.9),
]

Q: If you can, please state the reported bioavailability value of `Cc1cc(C(F)(F)F)ccc1-c1cc2cn([C@@H](CC(C)C)c3ccc(C(=O)NCCC(=O)O)cc3)nc2cc1C` .
A: 32.3

Q: Now give it for `Cc1c(-c2ccc(C(F)(F)F)cc2Cl)ccc2nn([C@@H](CC(C)C)c3ccc(C(=O)NCCC(=O)O)cc3)cc12` too.
A: 13.2

====

experiment_description: Clearance in dog at 2 mg/kg, iv or 10 mg/kg, po
Type: ADME, organism-based, Canis lupus familiaris
experimental_conditions: in vivo
quantity_measured: clearance (mL/min/kg)
Your answer should be a plain number; it is taken to be in mL/min/kg.

Here are 2 molecules together with their reported answers.
# chemical_smiles, clearance, mL/min/kg
rows = [
    ("Cc1c(-c2ccc(C(F)(F)F)cc2Cl)ccc2nn([C@@H](CC(C)C)c3ccc(C(=O)NCCC(=O)O)cc3)cc12", 0.42),
    ("Cc1cc(C(F)(F)F)ccc1-c1cc2cnn([C@@H](CC(C)C)c3ccc(C(=O)NCCC(=O)O)cc3)c2cc1C", 0.21),
]

Q: If you can, please state the reported clearance value of `Cc1cc(C(F)(F)F)ccc1-c1cc2cn([C@@H](CC(C)C)c3ccc(C(=O)NCCC(=O)O)cc3)nc2cc1C` .
A: 0.19

Q: Now give it for `Cc1cc2c(cnn2[C@@H](CC(C)C)c2ccc(C(=O)NCCC(=O)O)cc2)cc1-c1ccc(C(F)(F)F)cc1Cl` too.
A: 0.21

====

Recorded remaining at 10 min, 1 µM for the following compounds
experiment_description: Stability in rat liver microsomes assessed as parent compound remaining at 1 uM incubated for 10 mins
Assay type: ADME, Microsome
experimental_conditions: read-out: Stability
Your answer should be a plain number; it is taken to be in %.

Here are 3 compounds together with their reported answers.
# chemical_smiles, endpoint_unit, remaining at 10 min, 1 µM
data = [
    ("COc1c(-c2ccc(C(F)(F)F)cc2Cl)ccc2c1cnn2[C@@H](CC(C)C)c1ccc(C(=O)NCCC(=O)O)cc1", "%", 97),
    ("CC(C)C[C@@H](c1ccc(C(=O)NCCC(=O)O)cc1)n1ncc2cc(-c3ccc(C(F)(F)F)cc3Cl)ccc21", "%", 81),
    ("COc1c(-c2ccc(C(F)(F)F)cc2C)ccc2c1cnn2[C@@H](CC(C)C)c1ccc(C(=O)NCCC(=O)O)cc1", "%", 81),
]

Q: If you can, please state the reported remaining at 10 min, 1 µM value of `COc1c(-c2ccc(C(F)(F)F)cc2Cl)ccc2nn([C@H](CC(C)C)c3ccc(C(=O)NCCC(=O)O)cc3)cc12` .
A: 100

====

experiment_description: AUClast in Sprague-Dawley rat at 2 mg/kg, iv or 10 mg/kg, po
Assay type: ADME, organism-based
experimental_conditions: in vivo
Recorded AUC(0-t) for the following molecules
Your answer should be a plain number; it is taken to be in µM·h.

# chemical_smiles, endpoint_unit, AUC(0-t)
records = [
    ("Cc1cc(C(F)(F)F)ccc1-c1cc2cnn([C@@H](CC(C)C)c3ccc(C(=O)NCCC(=O)O)cc3)c2cc1C", "µM·h", 6.5),
    ("Cc1c(-c2ccc(C(F)(F)F)cc2Cl)ccc2nn([C@@H](CC(C)C)c3ccc(C(=O)NCCC(=O)O)cc3)cc12", "µM·h", 1.4),
]

Q: If you can, please state the reported AUC(0-t) value of `Cc1cc2c(cnn2[C@@H](CC(C)C)c2ccc(C(=O)NCCC(=O)O)cc2)cc1-c1ccc(C(F)(F)F)cc1Cl` .
A: 5.6

Q: Now give it for `Cc1cc(C(F)(F)F)ccc1-c1cc2cn([C@@H](CC(C)C)c3ccc(C(=O)NCCC(=O)O)cc3)nc2cc1C` too.
A: 9.2
